Test system: HepG2 cells
Test: In vitro antitumor activity, MTS cell proliferation
Type: cell-based
Conditions: Homo sapiens, HepG2, hepatocellular cancer, 72 hours
Measurement kind: pIC50
Answers are plain numbers, as −log10 of the molar value.

Item Cc1ccccc1NS(=O)(=O)c1ccc2c(c1)/C(=C/c1nc3ccccc3[nH]1)C(=O)N2 ; assay system HepG2 cells; pIC50 reported as 5.25

###

Test system: protein tyrosine kinase (PTK)
Experiment: PTK activity assay with mouse brain tissue extract (ELISA, OD 492 nm)
Assay type: biochemical
Conditions: at 400 μM
Measurement kind: Inhibition rate on tyrosine kinase (%)
Answers are plain numbers, in %.

Worked examples, 3 molecules total:
> print(dat)
                            compound.string                   assay.system                    measurement.kind  unit.of.measurement  measurement
1  O=C1Nc2ccc(S(=O)(=O)Nc3ccc(CCO)cc3)cc2C1=Cc1nc2ccccc2[nH]1  protein tyrosine kinase (PTK)  Inhibition rate on tyrosine kinase                    %         58.2
2  O=C1Nc2ccc(S(=O)(=O)NC3CCCCC3)cc2C1=Cc1nc2ccccc2[nH]1  protein tyrosine kinase (PTK)  Inhibition rate on tyrosine kinase                    %         60.7
3  CN(c1ccccc1)S(=O)(=O)c1ccc2c(c1)C(=Cc1nc3ccccc3[nH]1)C(=O)N2  protein tyrosine kinase (PTK)  Inhibition rate on tyrosine kinase                    %         55.9

Please look at the following molecule next.
Tested on protein tyrosine kinase (PTK), the item CCOc1ccc(NS(=O)(=O)c2ccc3c(c2)C(=Cc2nc4ccccc4[nH]2)C(=O)N3)cc1 showed Inhibition rate on tyrosine kinase equal to 51.3
